Parameter: growth. Scope: all listed entries.
system: NCI-H522 lung; test: NCI-60 one-dose screen, 48 h (100 = growth as untreated, 0 = no growth, -100 = all killed); settings: 10 µM
Compounds without any hit were thinned out: in the full panel of roughly 83,000, 20% have a hit.
ENDPOINT LABEL: growth (%)

COc1cc(CSc2nc3ccc(C)cc3c(=O)n2-c2ccccc2)cc(OC)c1OC: 8.32
N=C(N)c1ccc(-c2ccc(-c3cccs3)s2)nc1: 72.8
Cc1cc(C#Cc2ccccc2)ccc1-n1c(/C=C/c2cc(O)ccc2O)nc2ccccc2c1=O: -74.6
C[C@H](NC(=O)[C@@H]1CSSC[C@@H](NC(=O)Cc2nc3ccccc3cc2O)C(=O)NCC(=O)N1C)c1ccccc1: 88.3
Cc1nn2c(/C=C3/C(=O)Nc4ccc(Cl)cc43)c(-c3ccccc3)nc2s1: 43.6
CCNC(=S)NN: 105
Cc1nnc2c3nnc(-c4ccc(Cl)cc4)n3c3ccccc3n12: 86.6
Cc1noc(C)c1-c1ccc2nc(NC(=O)[C@H]3CCN(C#N)C3)cn2c1: 25.2
S=c1c2ncccc2c(-c2ccccn2)nn1Cc1ccccn1: 88.5
CCOC(=O)c1ccc(NC(=O)Nc2nncs2)cc1: 7.15
CCN(Cc1ccccc1)C1CCN(Cc2cc(Br)ccc2O)CC1: 61

* * *

tested on: MCF7 breast; test: NCI-60 one-dose screen, 48 h (100 = growth as untreated, 0 = no growth, -100 = all killed); settings: 10 µM
Compounds without any hit were thinned out: in the full panel of roughly 83,000, 20% have a hit.
Examples of compounds with documented growth follow.
ENDPOINT LABEL: growth (%)

O=C(CCc1ccccc1)N1CCN(C(=O)CCc2ccccc2)CC1: 95.7
Fc1ccc(Nc2ccnc(N3CCN(c4ccnc5cc(Cl)ccc45)CC3)n2)cc1: 19.2
Cc1nc2ccc(-n3c(-c4ccc(Cl)cc4)nc4ccccc4c3=O)cc2n1Cc1ccccc1: 85
COc1cc(N=C2C(=O)N(Cc3ccccc3)c3ccccc32)cc(OC)c1OC: 93.8
O=C(/C=C/c1ccc(Cl)cc1)c1ccc(Br)cc1: 26.3

* * *

system: SK-MEL-28 melanoma; test: NCI-60 one-dose screen, 48 h (100 = growth as untreated, 0 = no growth, -100 = all killed); conditions: 10 µM
The panel holds about 83,000 compounds, 20% with a hit somewhere; the sample as a whole holds those more often.
ENDPOINT LABEL: growth (%)

CCCCC(=O)N(c1ccc(Nc2c3ccccc3nc3cc([N+](=O)[O-])ccc23)cc1)S(C)(=O)=O: 105
COc1ccccc1S(=O)(=O)Nc1ccc2c(c1)CN(C)C(=O)N2: 48.9
COc1ccc(-c2cc(/C=C3\C(=O)Nc4cc(Cl)ccc43)[nH]n2)cc1: 50.5
CCCCn1c(=O)[nH]c2c(c1=O)C(c1ccc(Cl)cc1)c1c([nH]c(=O)n(CCCC)c1=O)N2: 102
C=CCc1cc(Nc2c3ccc(Cl)cc3nc3ccc(OC)cc23)cc(CN(CC)CC)c1O: 39.1
COc1ccc(-c2nc(-c3nc4ccc(OC)cc4[nH]3)c3ccccn23)cc1: 98.1
Cc1cc(Cl)ccc1Nc1nc(C(F)(F)F)ccc1C(=O)N/N=C/c1ccccc1Cl: 37.2
COc1c(C)c(C)c(OC)c2c1[nH]c(=O)c1c3cccnc3cn21: 125
COc1cc(N=C2C(=O)N(Cc3ccccc3)c3ccccc32)cc(OC)c1OC: 113
C(=C\c1nc2ccccc2s1)/c1ccc(N2CCOCC2)s1: 113
